Test system: MND enzyme
Format: biochemical, Methylobacterium Thebainfresser
experimental-setup: overnight enzyme assay at 30° C., 7.5 μM substrate, ~36 μg purified MND enzyme, pH 8.0; reduction of substrate vs empty vector control; percentages approximate
Description: Samples were injected by the UFLCXR (Shimadzu) autosampler/pump system using a 0.5 ml/min flow rate prior to separation using a Gemini C-18 column (150×2.00 mm, 5μ, 110 Å; Phenomenex) and introduction into the QTRAP 6500. […] Data were analyzed using Analyst 1.6.2. […]

{"compound": "COc1ccc(C[C@H]2c3cc(O)c(OC)cc3CCN2C)cc1O [(S)-Reticuline]", "Percent demethylated / %": 55}
{"compound": "COc1ccc2c3c1O[C@H]1C(=O)C=C[C@H]4[C@@H](C2)N(C)CC[C@]314 [Codeinone]", "Percent demethylated / %": 100}
{"compound": "COc1cc2c3c(c1O)-c1c(cccc1OC)C[C@@H]3N(C)CC2 [Isothebaine]", "Percent demethylated / %": 35}
{"compound": "COc1ccc2c(c1OC)C(=O)O[C@@H]2[C@H]1c2c(cc3c(c2OC)OCO3)CCN1C [Noscapine (Narcotine)]", "Percent demethylated / %": 20}
{"compound": "CC(=O)Oc1ccc2c3c1O[C@H]1[C@@H](OC(C)=O)C=C[C@H]4[C@@H](C2)N(C)CC[C@@]341 [Heroin]", "Percent demethylated / %": 70}
{"compound": "COc1ccc2c3c1O[C@H]1[C@@H](O)C=C[C@H]4[C@@H](C2)N(C)CC[C@@]341 [Codeine]", "Percent demethylated / %": 100}
{"compound": "COc1ccc2c3c1O[C@H]1C[C@@H](O)C=C[C@@]31CCN(C)C2 [Galanthamine]", "Percent demethylated / %": 27}
{"compound": "CN1[C@@H](CC(=O)c2ccccc2)CCC[C@H]1C[C@H](O)c1ccccc1 [(−)-Lobeline]", "Percent demethylated / %": 20}
{"compound": "COc1ccc(CC2c3cc(OC)c(O)cc3CCN2C)cc1O (stereo not drawn) [Protosinomenine]", "Percent demethylated / %": 60}
{"compound": "COc1ccc(CC2c3cc(OC)c(OC)cc3CCN2C)cc1OC (stereo not drawn) [Laudanosine]", "Percent demethylated / %": 31}
{"compound": "COC1=C[C@]23CCN(C)[C@H](Cc4ccc(OC)c(O)c42)C3=C[C@@H]1O [Salutaridinol]", "Percent demethylated / %": 100}
{"compound": "COC1=C[C@]23CCN(C)[C@H](Cc4ccc(OC)c(O)c42)C3=CC1=O [Salutaridine]", "Percent demethylated / %": 100}
{"compound": "COC1=CC=C2[C@H]3Cc4ccc(O)c5c4[C@@]2(CCN3C)[C@H]1O5 [Oripavine]", "Percent demethylated / %": 100}
{"compound": "CN1[C@@H]2CC[C@H]1CC(=O)C2 [Tropinone]", "Percent demethylated / %": 40}
{"compound": "CN1CC[C@]23c4c5ccc(O)c4O[C@H]2C(=O)C=C[C@H]3[C@H]1C5 [Morphinone]", "Percent demethylated / %": 100}
{"compound": "CN1[C@@H]2C[C@@H](OC(=O)[C@H](CO)c3ccccc3)C[C@H]1[C@@H]1O[C@@H]12 [Scopolamine]", "Percent demethylated / %": 65}
{"compound": "CN1[C@@H]2CC[C@H]1C[C@@H](OC(=O)[C@H](CO)c1ccccc1)C2 [Hyoscyamine]", "Percent demethylated / %": 18}
{"compound": "CN(C)Cc1c[nH]c2ccccc12 [Gramine]", "Percent demethylated / %": 51}
{"compound": "COC1=CC=C2[C@H]3Cc4ccc(OC)c5c4[C@@]2(CCN3C)[C@H]1O5 [Thebaine]", "Percent demethylated / %": 100}
{"compound": "COc1ccc(C[C@@H]2c3cc(O)c(OC)cc3CCN2C)cc1O [(R)-Reticuline]", "Percent demethylated / %": 25}
{"compound": "COc1cc2c(cc1O)[C@H](CCc1cc(O)c(OC)c(OC)c1)N(C)CC2 [Autumnaline]", "Percent demethylated / %": 11}
{"compound": "COc1cc(C[C@@H]2c3cc(O)c(OC)cc3CCN2C)ccc1O [Orientaline]", "Percent demethylated / %": 100}
{"compound": "CN1CC[C@]23c4c5ccc(O)c4O[C@H]2C(=O)CC[C@@]3(O)[C@H]1C5 [Oxymorphone]", "Percent demethylated / %": 73}
{"compound": "COc1ccc(C[C@H]2c3cc(OC)c(OC)cc3CCN2C)cc1O [Laudanine (Laudanidine)]", "Percent demethylated / %": 14}
